Target: FGFR2 V564F (Homo sapiens, UniProt P21802, V564F)
Construct: P41212 (Transcription factor ETV6)
Sequence (P21802 481-770 V564F limits assumed): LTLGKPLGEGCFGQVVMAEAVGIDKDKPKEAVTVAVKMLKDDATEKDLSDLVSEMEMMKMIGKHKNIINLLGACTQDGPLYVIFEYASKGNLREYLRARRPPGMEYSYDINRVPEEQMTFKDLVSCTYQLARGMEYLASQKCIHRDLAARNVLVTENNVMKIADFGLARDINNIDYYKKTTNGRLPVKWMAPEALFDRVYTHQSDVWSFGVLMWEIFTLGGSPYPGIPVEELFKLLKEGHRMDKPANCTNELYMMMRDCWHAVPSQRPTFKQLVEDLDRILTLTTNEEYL
Assay: Cell proliferation assay for Tel-FGFR2 V564F in BaF3
Type: cell-based
Conditions: BaF3 cells expressing FGFR2 V564F fusion, 48 hrs, CellTiter Glo
The following compounds are shown together with reported IC50 values.

>>> experimental_value("C=CC(=O)N1CC[C@H](n2cc(C#Cc3cc4nc(C(F)F)sc4cc3F)c3c(N)ncnc32)C1")
"0.5 to 5 nM"
>>> experimental_value("C=CC(=O)N1CC[C@H](n2nc(C#Cc3cnc4sc(C)nc4c3)c3c(N)ncnc32)C1")
"5 to 50 nM"
>>> experimental_value("C=CC(=O)N1CC[C@H](n2cc(C#Cc3cc4nc(C(F)(F)F)oc4cc3F)c3c(N)ncnc32)C1")
"5 to 50 nM"

Hi! What's the reported IC50 for C=CC(=O)N1CC[C@H](n2nc(C#Cc3cc4nc(C5CCC5)oc4cc3F)c3c(N)ncnc32)C1 on FGFR2 V564F (Homo sapiens, UniProt P21802, V564F)? 0.5 to 5 nM

Which IC50 is reported with FGFR2 V564F (Homo sapiens, UniProt P21802, V564F) for this entry: C=CC(=O)N1CCC(c2cc(C#Cc3ccc4oc(C5CC5)nc4c3)c3c(N)ncnn23)C1 (centres unmarked) ? 0.5 to 5 nM

Lab note: need IC50 with FGFR2 V564F (Homo sapiens, UniProt P21802, V564F) for entry C=CC(=O)N1CC[C@H](n2nc(C#Cc3cc4nc(C(F)F)sc4cc3F)c3c(N)ncnc32)C1 , please look it up. 0.5 to 5 nM

# value lookup — system FGFR2 V564F (Homo sapiens, UniProt P21802, V564F), readout IC50, item C=CC(=O)N1CC[C@H](n2cc(C#Cc3ccc4sc(C(F)F)nc4c3)c3c(N)ncnc32)C1 0.5 to 5 nM

Request: IC50, test system FGFR2 V564F (Homo sapiens, UniProt P21802, V564F), entry C=CC(=O)N1CC[C@H](n2nc(C#Cc3cc4nc(N(C)C)oc4cc3F)c3c(N)ncnc32)C1 0.5 to 5 nM

---

Molecular target: FGFR2 V564L (Homo sapiens, UniProt P21802, V564L)
Construct: P41212 (Transcription factor ETV6)
Sequence (P21802 481-770 V564L limits assumed): as the sequence (P21802 481-770 V564F limits assumed) above, with F84L counted along it
Test: Cell proliferation assay for Tel-FGFR2 V564L in BaF3
Type: cell-based
Settings: BaF3 cells expressing FGFR2 V564L fusion, 48 hrs, CellTiter Glo
Each entry below carries its recorded IC50.

Consider the reported IC50 for these compounds:
>>> experimental_value("C=CC(=O)N1CC[C@H](n2cc(C#Cc3c(F)cc4sc(C5CC5)nc4c3F)c3c(N)ncnc32)C1")
"0.5 to 5 nM"
>>> experimental_value("C=CC(=O)N1CC[C@H](n2cc(C#Cc3ccc4oc(C(F)F)nc4c3)c3c(N)ncnc32)C1")
"5 to 50 nM"
>>> experimental_value("C=CC(=O)N1CC[C@H](n2cc(C#Cc3ccc4oc(C5CC5)nc4c3)c3c(N)ncnc32)C1")
"0.5 to 5 nM"
>>> experimental_value("C=CC(=O)N1CC[C@H](n2cc(C#Cc3ccc4sc(C(F)F)nc4c3)c3c(N)ncnc32)C1")
"0.5 to 5 nM"

Attention now shifts to the item below.
Name the recorded IC50 for C=CC(=O)N1C[C@@H](n2nc(C#Cc3c(F)cc4sc(N5CCC5)nc4c3F)c3c(N)ncnc32)C[C@@H]1COC . 0.5 to 5 nM

---

Overview of recorded IC50 for various compounds
Target: FGFR3 V555M (Homo sapiens, UniProt P22607, V555M)
Construct: P41212 (Transcription factor ETV6)
Sequence (P22607 472-761 V555M limits assumed): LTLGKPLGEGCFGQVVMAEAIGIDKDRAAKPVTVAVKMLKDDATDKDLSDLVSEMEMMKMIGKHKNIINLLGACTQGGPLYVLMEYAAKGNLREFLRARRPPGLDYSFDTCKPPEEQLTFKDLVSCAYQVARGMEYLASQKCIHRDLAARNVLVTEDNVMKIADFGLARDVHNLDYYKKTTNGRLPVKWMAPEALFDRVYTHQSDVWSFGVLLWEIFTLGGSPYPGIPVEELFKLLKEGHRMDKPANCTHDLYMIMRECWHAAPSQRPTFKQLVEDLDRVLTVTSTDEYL
Assay: Cell proliferation assay for FGFR3 V555M in BaF3
Format: cell-based
Details: BaF3 cells expressing FGFR3 V555M fusion, 48 hrs, CellTiter Glo

>>> experimental_value("C=CC(=O)N1CC[C@H](n2nc(C#Cc3c(F)cc4oc(N5CCC5)nc4c3F)c3c(N)ncnc32)C1")
"≤ 0.5 nM"
>>> experimental_value("C=CC(=O)N1CC[C@H](n2nc(C#Cc3cc4nc(C5CC5)sc4cc3F)c3c(N)ncnc32)C1")
"0.5 to 5 nM"
>>> experimental_value("C=CC(=O)N1CC[C@H](n2cc(C#Cc3cc4nc(C(F)F)sc4cc3F)c3c(N)ncnc32)C1")
"5 to 50 nM"
>>> experimental_value("CN(C)C/C=C/C(=O)N1CC(n2nc(C#Cc3c(F)cc4oc(N5CCC5)nc4c3F)c3c(N)ncnc32)C1")
"0.5 to 5 nM"
>>> experimental_value("C=CC(=O)N1CC[C@H](n2cc(C#Cc3c(F)cc4oc(N5CCC5)nc4c3F)c3c(N)ncnc32)C1")
"0.5 to 5 nM"

Would you kindly share the measured IC50 for C=CC(=O)N1CC[C@H](n2cc(C#Cc3cc4nc(C)sc4cc3F)c3c(N)ncnc32)C1 ? 5 to 50 nM

For the compound shown here, C=CC(=O)N1CC[C@H](n2cc(C#Cc3ccc4oc(C(F)F)nc4c3)c3c(N)ncnc32)C1 , give the reported IC50. 5 to 50 nM

---

Molecular target: FGFR3 N540K (Homo sapiens, UniProt P22607, N540K)
Construct: P41212 (Transcription factor ETV6)
Sequence (P22607 472-761 N540K limits assumed): as the sequence (P22607 472-761 V555M limits assumed) above, with N69K, M84V counted along it
Test: Cell proliferation assay for FGFR3 N540K in BaF3
Type: cell-based
Conditions: BaF3 cells expressing FGFR3 N540K fusion, 48 hrs, CellTiter Glo
The entries below come with measured IC50 values attached.

Past entries and their recorded results:
>>> experimental_value("C=CC(=O)N1CC[C@H](n2nc(C#Cc3c(F)cc4oc(N5CCC5)nc4c3F)c3c(N)ncnc32)C1 [Example 74]")
"0.5 to 5 nM"
>>> experimental_value("C=CC(=O)N1CC[C@H](n2nc(C#Cc3ccc4oc(C5CC5)nc4c3)c3c(N)ncnc32)C1 [Example 20]")
"0.5 to 5 nM"
>>> experimental_value("C=CC(=O)N1C[C@@H](n2nc(C#Cc3c(F)cc4sc(C5CC5)nc4c3F)c3c(N)ncnc32)C[C@@H]1COC [Example 68]")
"0.5 to 5 nM"
>>> experimental_value("C=CC(=O)N1CC[C@H](n2nc(C#Cc3c(F)cc4oc(NC)nc4c3F)c3c(N)ncnc32)C1 [Example 67]")
"5 to 50 nM"
>>> experimental_value("CN(C)C/C=C/C(=O)N1CC(n2nc(C#Cc3c(F)cc4sc(C5CC5)nc4c3F)c3c(N)ncnc32)C1 [Example 78]")
"5 to 50 nM"

Fill in the blank: the reported IC50 of CN(C)C/C=C/C(=O)N1CC(n2nc(C#Cc3c(F)cc4oc(N5CCC5)nc4c3F)c3c(N)ncnc32)C1 [Example 77] is ____. 5 to 50 nM

Report IC50 for C=CC(=O)N1CC[C@H](n2cc(C#Cc3ccc4oc(C5CC5)nc4c3)c3c(N)ncnc32)C1 [Example 1] please. 0.5 to 5 nM

Data request, read-out IC50, for C=CC(=O)N1CC[C@H](n2nc(C#Cc3c(F)cc4sc(C5CC5)nc4c3F)c3c(N)ncnc32)C1 [Example 62] 0.5 to 5 nM

---

IC50 overview
Molecular target: FGFR2 V564F (Homo sapiens, UniProt P21802, V564F)
Construct: P41212 (Transcription factor ETV6)
Test: Cell proliferation assay for Tel-FGFR2 V564F in BaF3
Assay type: cell-based
Conditions: BaF3 cells expressing FGFR2 V564F fusion, 48 hrs, CellTiter Glo

>>> experimental_value("CN(C)C/C=C/C(=O)N1CC(n2nc(C#Cc3c(F)cc4sc(C5CC5)nc4c3F)c3c(N)ncnc32)C1")
"≤ 0.5 nM"
>>> experimental_value("C=CC(=O)N1CC[C@H](n2nc(C#Cc3ccc4sc(C)nc4c3)c3c(N)ncnc32)C1")
"0.5 to 5 nM"
>>> experimental_value("C=CC(=O)N1CC[C@H](n2nc(C#Cc3ccc4sc(CC)nc4c3)c3c(N)ncnc32)C1")
"0.5 to 5 nM"

Then this molecule:
// fetch FGFR2 V564F (Homo sapiens, UniProt P21802, V564F) IC50 for C=CC(=O)N1CC[C@H](n2cc(C#Cc3c(F)cc4oc(N5CCC5)nc4c3F)c3c(N)ncnc32)C1 ≤ 0.5 nM

---

Target: FGFR2 V564F (Homo sapiens, UniProt P21802, V564F)
Construct: P41212 (Transcription factor ETV6)
Assay: Cell proliferation assay for Tel-FGFR2 V564F in BaF3
Format: cell-based
Conditions: BaF3 cells expressing FGFR2 V564F fusion, 48 hrs, CellTiter Glo
Description: By transfection, cell strains of the intracellular kinase domain fusion protein of TEL-FGFR2 WT or the intracellular domain fusion proteins containing FGFR2 V564, V564F, V564L, N549K and K659M mutations were stably expressed in Baf cells. […] Then relative light units (RLUs) were measured on a microplate reader with a luminescence detection module. […]
Catalogue of IC50 readings, one per entry.

As a guide, the following entries are already answered.
>>> experimental_value("C=CC(=O)N1CC[C@H](n2nc(C#Cc3ccc4sc(C(F)F)nc4c3)c3c(N)ncnc32)C1")
"5 to 50 nM"
>>> experimental_value("C=CC(=O)N1CC[C@H](n2nc(C#Cc3cc4nc(N5CCC5)oc4cc3F)c3c(N)ncnc32)C1")
"0.5 to 5 nM"
>>> experimental_value("C=CC(=O)N1CC[C@H](n2nc(C#Cc3cc4nc(NC5CC5)oc4cc3F)c3c(N)ncnc32)C1")
"0.5 to 5 nM"

Query (molecule): C=CC(=O)N1CC[C@H](n2nc(C#Cc3c(F)cc4oc(NC)nc4c3F)c3c(N)ncnc32)C1 ; field requested: IC50 0.5 to 5 nM

Given C=CC(=O)N1CC[C@H](n2cc(C#Cc3cc4nc(C5CC5)sc4cc3F)c3c(N)ncnc32)C1 , state its recorded IC50. 0.5 to 5 nM

What value of IC50 has been recorded for this entry: C=CC(=O)N1CC[C@H](n2nc(C#Cc3cc4nc(C5CC5)oc4cc3F)c3c(N)ncnc32)C1 ≤ 0.5 nM

Value lookup for IC50; key = C=CC(=O)N1CC[C@H](n2nc(C#Cc3cc4nc(NCC)oc4cc3F)c3c(N)ncnc32)C1 0.5 to 5 nM

Which IC50 is reported for this molecule? CN(C)C/C=C/C(=O)N1CC(n2nc(C#Cc3c(F)cc4oc(N5CCC5)nc4c3F)c3c(N)ncnc32)C1 ≤ 0.5 nM

Need IC50 of C=CC(=O)N1C[C@@H](n2nc(C#Cc3c(F)cc4sc(C5CC5)nc4c3F)c3c(N)ncnc32)C[C@@H]1COC , thanks. ≤ 0.5 nM

I am curious: what IC50 value has been reported for C=CC(=O)N1CC[C@H](n2cc(C#Cc3ccc4oc(NC)nc4c3)c3c(N)ncnc32)C1 ? 0.5 to 5 nM

Name the recorded IC50 for C=CC(=O)N1CC[C@H](n2nc(C#Cc3c(F)cc4sc(C5CC5)nc4c3F)c3c(N)ncnc32)C1 . ≤ 0.5 nM

I am curious: what IC50 value has been reported for C=CC(=O)N1CC[C@H](n2cc(C#Cc3ccc4sc(C)nc4c3)c3c(N)ncnc32)C1 ? ≤ 0.5 nM

Any idea what its IC50 is? The molecule is C=CC(=O)N1CC[C@H](n2cc(C#Cc3cc4nc(C)sc4cc3F)c3c(N)ncnc32)C1 ≤ 0.5 nM

Quick one: IC50 for C=CC(=O)N1CC[C@H](n2cc(C#Cc3ccc4oc(C5CCC5)nc4c3)c3c(N)ncnc32)C1 ? 0.5 to 5 nM

# query: IC50 of entry C=CC(=O)N1CC[C@H](n2cc(C#Cc3ccc4oc(C(C)C)nc4c3)c3c(N)ncnc32)C1 0.5 to 5 nM

Where do the numbers come from? From patent US20230303575A1.
